# Target entity: HLA-A*02:01 (Homo sapiens, UniProt P04439, D140Y/D185E/D98H/E176V/E277Q/G131W/G231S/I119V/I121R/I166T/I218V/L300P/L318F/N151K/N90K/P208A/P217A/Q86G/Q94H/R138H/R169H/T345S)
# Experiment notes: MHC binding assay (UV-ligand exchange, β2m ELISA, peptide exchange yield)
# Protocol conditions: MHC class I binding score; binding to HLA-A*02:01 ranged by peptide exchange yield (UV-ligand exchange, β2m ELISA)
Test readout: Peptide exchange

Some substances with recorded Peptide exchange:
Substance	Peptide exchange
436 (HLAEVSAEV; listed as Homo sapiens) [compound 436]	“+++” (≧50 = +++)
108 (ALFPGVALLLA; listed as Homo sapiens) [compound 108]	“++++” (≧75% = ++++)
549 (AMLENASDIKL; listed as Homo sapiens) [compound 549]	“+++” (≧50 = +++)
84 (VTFGEKLLGV; listed as Homo sapiens) [compound 84]	“++” (≧20% = ++)
60 (SLTIDGIYYV; listed as Homo sapiens) [compound 60]	“++++” (≧75% = ++++)

(Q) Returns the measured Peptide exchange for the input substance. Input: 573 (ILVANAIVGV; listed as Homo sapiens) [compound 573]
(A) “+++” (≧50 = +++)

(Q) Returns the measured Peptide exchange for the input substance. Input: 529 (LLADELITV; listed as Homo sapiens) [compound 529]
(A) “+++” (≧50 = +++)

(Q) Returns the measured Peptide exchange for the input substance. Input: 267 (ALQDFLLSV; listed as Homo sapiens) [compound 267]
(A) “+++” (≧50 = +++)

(Q) Returns the measured Peptide exchange for the input substance. Input: 43 (VLSSLEINI; listed as Homo sapiens) [compound 43]
(A) “++” (≧20% = ++)

(Q) Returns the measured Peptide exchange for the input substance. Input: 99 (ALVSKGLATV; listed as Homo sapiens) [compound 99]
(A) “++” (≧20% = ++)

(Q) Returns the measured Peptide exchange for the input substance. Input: 502 (RLLAQVPGL; listed as Homo sapiens) [compound 502]
(A) “+++” (≧50 = +++)

(Q) Returns the measured Peptide exchange for the input substance. Input: 380 (TLIEDEIATI; listed as Homo sapiens) [compound 380]
(A) “++” (≧20% = ++)

(Q) Returns the measured Peptide exchange for the input substance. Input: 510 (KLYSVVSQL; listed as Homo sapiens) [compound 510]
(A) “++” (≧20% = ++)

(Q) Returns the measured Peptide exchange for the input substance. Input: 579 (NLMEMVAQL; listed as Homo sapiens) [compound 579]
(A) “++” (≧20% = ++)

(Q) Returns the measured Peptide exchange for the input substance. Input: 438 (KLLPLAGLYL; listed as Homo sapiens) [compound 438]
(A) “++++” (≧75% = ++++)

(Q) Returns the measured Peptide exchange for the input substance. Input: 171 (LLLPLQILL; listed as Homo sapiens) [compound 171]
(A) “+++” (≧50 = +++)

(Q) Returns the measured Peptide exchange for the input substance. Input: 26 (ALLELAEEL; listed as Homo sapiens) [compound 26]
(A) “+++” (≧50 = +++)

(Q) Returns the measured Peptide exchange for the input substance. Input: 504 (GLSDGNPSL; listed as Homo sapiens) [compound 504]
(A) “++” (≧20% = ++)

(Q) Returns the measured Peptide exchange for the input substance. Input: 522 (TLWYRSPEV; listed as Homo sapiens) [compound 522]
(A) “++” (≧20% = ++)
